Attribution: patent US20220332795A1

Here the recorded hCD71:HSA is given for each entry.
Target: T1, recombinant biotinylated CD71 extracellular domain (Sino Biologics) with an N-terminal 6His tag (human, UniProt P02786 89-760, biotinylated (site not stated))
T1 construct: extracellular domain; also called hCD71; huCD71 ECD
T1 sequence (P02786 other isoform, or with tags, fused parts or gaps): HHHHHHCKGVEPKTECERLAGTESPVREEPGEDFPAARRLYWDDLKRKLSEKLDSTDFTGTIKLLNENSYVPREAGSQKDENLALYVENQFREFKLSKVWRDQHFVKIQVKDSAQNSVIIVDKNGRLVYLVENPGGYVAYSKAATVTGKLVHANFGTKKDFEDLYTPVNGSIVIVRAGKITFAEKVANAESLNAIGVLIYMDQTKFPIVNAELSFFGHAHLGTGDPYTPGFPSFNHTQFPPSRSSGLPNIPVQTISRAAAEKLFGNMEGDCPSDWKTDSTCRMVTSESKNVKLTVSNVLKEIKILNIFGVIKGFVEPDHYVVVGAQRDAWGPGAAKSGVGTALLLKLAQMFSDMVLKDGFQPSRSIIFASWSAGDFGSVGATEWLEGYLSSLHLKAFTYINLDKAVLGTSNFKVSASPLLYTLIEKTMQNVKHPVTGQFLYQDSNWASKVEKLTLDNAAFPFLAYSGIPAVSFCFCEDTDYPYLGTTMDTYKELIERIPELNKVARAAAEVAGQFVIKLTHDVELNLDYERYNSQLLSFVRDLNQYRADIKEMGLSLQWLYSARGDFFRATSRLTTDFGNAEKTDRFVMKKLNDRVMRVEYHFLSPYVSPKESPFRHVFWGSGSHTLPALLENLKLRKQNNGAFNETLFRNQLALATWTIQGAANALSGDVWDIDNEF
Assay: primary solution ELISA screen, signal on hCD71 over HSA
Lab note: jot down the number only; don't add units.

Examples from the recorded data:
SEQ ID NO 75 (designed binder, not shown: small tags and cut ends, FN3 domain, hit of the apical domain panning) MLPAPKNLVVSRVTEDSARLSWTAPDAAFDSFTISYGEEALIGEAIYLRVPGSERSYDLTGLKPGTEYYVHIEGVKGGSWSQPLAAAFTT    143
SEQ ID NO 38 (designed binder, not shown: small tags and cut ends, FN3 domain, hit of the apical domain panning) MLPAPKNLVVSRVTEDSARLSWTAPDAAFDSFPILYLEHTVRSEAIVLTVPGSERSYDLTDLKPGTEYCVPIDGVKGGLRSRPLSAIFTT    63
SEQ ID NO 40 (designed binder, not shown: small tags and cut ends, FN3 domain, hit of the apical domain panning) MLPAPKNLVVSRVTEDSARLSWTAPDAAFDSFTIDYWENRCPGEAIVLTVPGSERSYDLTGLKPGTEYCVWISGVKGGYSSWPLSAIFTT    16
SEQ ID NO 58 (designed binder, not shown: small tags and cut ends, FN3 domain, hit of the apical domain panning) MLPAPKNLVVSRVTEDSARLSWTAPDAAFDSFHIEYLELSRHGEAIVLTVPGSERSYDLTGLKPGTEYWVMIFGVKGGGPSKPLSAIFTT    101
SEQ ID NO 69 (designed binder, not shown: small tags and cut ends, FN3 domain, hit of the apical domain panning) MLPAPKNLVVSRVTEDSARLSWTAPDAAFDSFHIAYEETATSGEAIYLRVPGSERSYDLTGLKPGTEYGVEIEGVKGGARSRPLYADFTT    1170
SEQ ID NO 21 (designed binder, not shown: small tags and cut ends, FN3 domain, hit of the apical domain panning) MLPAPKNLVVSRVTEDSARLSWTAPDAAFDSFSIRYNEFIVAGEAIVLTVPGSERSYDLTGLKPGTEYDVPIAGVKGGGASWPLSAIVTT    85
SEQ ID NO 84 (designed binder, not shown: small tags and cut ends, FN3 domain, hit of the apical domain panning) MLPAPKNLVVSRVTEDSARLSWQGVARAFDSFSILYLELTPKGEAIVLTVPGSERSYDLTGLKPGTEYPVWIQGVKGGSPSAPLSAEFTT    28
SEQ ID NO 68 (designed binder, not shown: small tags and cut ends, FN3 domain, hit of the apical domain panning) MLPAPKNLVVSRVTEDSARLSWTAPDAAFDSFIIPYAEVRPDGEAIVLTVPGSERSYDLTGLKPGTEYSVLIHGVKGGHLSDPLSAISTT    14
SEQ ID NO 50 (designed binder, not shown: small tags and cut ends, FN3 domain, hit of the apical domain panning) MSLPAPKNLVVSRVTEDSARLSWTAPDAAFDSFTIHYREFQLSGEAIVLTVPGSERSYDLTGLKPGTEYDVPIEGVKGGPGSRPLSAIFTT    20
SEQ ID NO 101 (designed binder, not shown: small tags and cut ends, FN3 domain, hit of the apical domain panning) MLPAPKNLVVSRVTEDSARLSWTAPDAAFDSFHILYEELFLVGEAIVLTVPGSERSYDLTGLKPGTEYKVPISGVKGGPVSRPLSAIFTT    73

Could you now look at the following binder, please?
Memo: SEQ ID NO 14 (designed binder, not shown: small tags and cut ends, FN3 domain, hit of the apical domain panning) MLPAPKNLVVSRVTEDSARLSWTAPDAAFDSFPIYYVENVVWGEAIVLTVPGSERSYDLTGLKPGTEYWEVIIGVKGGQCSRPLSAIFTT , reported hCD71:HSA: 1280
